# subject-of-test: BTK (Homo sapiens (Human))
# method-summary: In vitro BTK kinase assay: BTK-POLYGAT-LS ASSAY
# protocol-conditions: read-out: IC50 (10 uM ATP); 10 uM ATP; in vitro Btk kinase assay, Example 41
pIC50: −log10 of the molar value.
measure-name: pIC50

QUERY: Supply recorded pIC50 for Nc1ncnc(N2CC[C@H](C(F)(F)F)[C@@H](N3CC[C@@H](Nc4cc(Cl)cc(Cl)c4)C3=O)C2)c1F here.
RESULT: > 7.00

QUERY: Report pIC50, nothing else, for this compound: Cc1ccc(C2CCCN(c3ncnc4[nH]ccc34)C2)cc1NC(=O)Nc1ccccc1 (centres unmarked)
RESULT: < 5.00

QUERY: Kindly indicate its recorded pIC50. Item: N#Cc1cnc2[nH]ccc2c1N1CCC[C@@H](N2CCCC(Nc3cc(F)cc(Cl)c3)C2=O)C1 (some centres unmarked)
RESULT: > 7.00

QUERY: Assign pIC50 to the following record: Nc1ncnc(N2CCC[C@@H](N3CCCC(Nc4cccc(C(=O)O)c4)C3=O)C2)c1F (some centres unmarked)
RESULT: < 5.00

QUERY: Return the recorded pIC50 value; entry: O=C1C(NC2CCCC2)CCCN1[C@@H]1CCCN(c2ncnc3[nH]ccc23)C1 (some centres unmarked)
RESULT: < 5.00

QUERY: Note down pIC50 recorded for O=C1C(Nc2cc(Cl)cc(Cl)c2)CCCN1[C@@H]1CCCN(c2ncnc3[nH]ccc23)C1 (some centres unmarked)
RESULT: > 7.00

QUERY: Note pIC50 for the compound shown: Nc1ncnc(N2CC[C@@H](F)[C@H](N3CCC[C@@H](Nc4cc(F)cc(Cl)c4)C3=O)C2)c1F
RESULT: < 5.00

QUERY: Fill in pIC50 for record N#Cc1ccccc1NC(=O)Nc1cccc(C2CCCN(c3ncnc4[nH]ccc34)C2)c1 (centres unmarked)
RESULT: < 5.00

====

# subject-of-test: BTK (Homo sapiens (Human), UniProt Q06187)
# Sequence (Q06187 whole entry): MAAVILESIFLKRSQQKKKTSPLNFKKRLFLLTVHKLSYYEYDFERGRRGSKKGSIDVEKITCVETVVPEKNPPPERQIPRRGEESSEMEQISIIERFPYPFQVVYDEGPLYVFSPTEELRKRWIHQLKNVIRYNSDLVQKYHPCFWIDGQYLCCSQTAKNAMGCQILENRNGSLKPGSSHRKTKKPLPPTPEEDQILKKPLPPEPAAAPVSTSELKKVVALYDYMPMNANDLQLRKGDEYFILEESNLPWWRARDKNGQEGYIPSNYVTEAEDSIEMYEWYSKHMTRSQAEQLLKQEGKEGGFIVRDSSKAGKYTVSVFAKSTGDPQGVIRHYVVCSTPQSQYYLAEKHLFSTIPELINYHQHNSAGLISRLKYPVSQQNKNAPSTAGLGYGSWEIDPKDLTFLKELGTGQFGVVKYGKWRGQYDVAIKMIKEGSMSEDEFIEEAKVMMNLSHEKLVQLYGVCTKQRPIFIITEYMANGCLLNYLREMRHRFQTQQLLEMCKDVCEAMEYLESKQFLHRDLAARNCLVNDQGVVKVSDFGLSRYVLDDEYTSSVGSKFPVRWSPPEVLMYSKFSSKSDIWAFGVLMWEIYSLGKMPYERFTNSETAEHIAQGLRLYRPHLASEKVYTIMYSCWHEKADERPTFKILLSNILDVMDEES
# method-summary: In vitro BTK kinase assay: BTK-POLYGAT-LS ASSAY
Would you kindly list IC50 for each of these molecules?

QUERY: Fill in IC50 for record N#CNc1cc(N2CCC[C@@H](N3CCCC(Nc4cc(F)cc(Cl)c4)C3=O)C2)ncn1 (stereo partly shown)
RESULT: 0.1 to 0.999 µM

QUERY: Quote IC50 reported for O=C(Nc1cc(C2CCCN(c3ncnc4[nH]ccc34)C2)ccc1OC(F)(F)F)c1c(F)cccc1Cl (stereo not shown) please.
RESULT: 0.1 to 0.999 µM

QUERY: Kindly indicate its recorded IC50. Item: O=C(Nc1ccccc1)Nc1cccc(C2CCCN(c3ncnc4[nH]cnc34)C2)c1 (stereo not shown)
RESULT: 0.1 to 0.999 µM

QUERY: Quick one: give measured IC50 for CC(=O)NCc1ccccc1NC(=O)Nc1cccc(C2CCCN(c3ncnc4[nH]ccc34)C2)c1 (stereo not shown)
RESULT: 1 to 10 µM

QUERY: Look up and report measured IC50 for this entry: CO[C@@H]1CCN(c2ccccc2NC(=O)Nc2cccc(C3CCCN(c4ncnc5[nH]ccc45)C3)c2)C1 (stereo partly shown)
RESULT: 0.1 to 0.999 µM

QUERY: Entry O=C(Nc1cccc(C2CCCN(c3ncnc4[nH]ccc34)C2)c1)Nc1ccccc1N1CCCCC1 (stereo not shown) needs its IC50 filled in; supply it.
RESULT: 0.1 to 0.999 µM

QUERY: Please report the measured IC50 for C[C@@H](NC(=O)Nc1cccc(C2CCCN(c3ncnc4[nH]ccc34)C2)c1)c1ccccc1 (stereo partly shown)
RESULT: 1 to 10 µM

QUERY: Look up and state reported IC50 for O=C(NCc1cccc(C2CCCN(c3ncnc4[nH]ccc34)C2)c1)Nc1ccccc1 (stereo not shown)
RESULT: 1 to 10 µM

QUERY: Hello, please tell me recorded IC50 for this one: O=C(Nc1cccc(C2CCCN(c3ncnc4[nH]ccc34)C2)c1)c1cccc(Cl)c1 (stereo not shown)
RESULT: 1 to 10 µM

QUERY: Report IC50, nothing else, for this molecule: O=C(Nc1cccc(C2CCCN(c3ncnc4[nH]ccc34)C2)c1)N[C@@H](CO)C1CCCCC1 (stereo partly shown)
RESULT: 1 to 10 µM

QUERY: Report IC50, nothing else, for this molecule: O=C(Nc1cccc(C2CCCN(c3ncnc4[nH]ccc34)C2)c1)Nc1ccccc1F (stereo not shown)
RESULT: 1 to 10 µM

QUERY: Give the reported IC50 for this molecule. O=C(Nc1cccc(C2CCCN(c3ncnc4[nH]ccc34)C2)c1)Nc1ccccn1 (stereo not shown)
RESULT: 1 to 10 µM

QUERY: Let me know recorded IC50 for O=C(NCC1CCCCCC1)Nc1cccc(C2CCCN(c3ncnc4[nH]ccc34)C2)c1 (stereo not shown) , thanks.
RESULT: 1 to 10 µM

QUERY: Give the measured IC50 for C[C@@H]1CCCN1c1ccccc1NC(=O)Nc1cccc(C2CCCN(c3ncnc4[nH]ccc34)C2)c1 (stereo partly shown)
RESULT: 0.1 to 0.999 µM

QUERY: Quick one: give measured IC50 for CCOC(=O)c1cccc(NC2CCCN([C@@H]3CCCN(c4ncnc(N)c4F)C3)C2=O)c1 (stereo partly shown)
RESULT: 1 to 10 µM

QUERY: Give IC50 for the following molecule: O=C(Nc1cc(C2CCCN(c3ncnc4[nH]ccc34)C2)ccc1OC(F)(F)F)C1CCCCC1 (stereo not shown)
RESULT: 0.1 to 0.999 µM

====

# subject-of-test: BTK (Homo sapiens (Human))
# method-summary: In vitro BTK kinase assay: BTK-POLYGAT-LS ASSAY
# protocol-conditions: read-out: IC50 (10 uM ATP); 10 uM ATP; in vitro Btk kinase assay, Example 41
pIC50: −log10 of the molar value.
Kindly state pIC50 for each of the entries shown.

QUERY: Tell me measured pIC50 for O=C(Nc1ccc(C2CCCC2)cc1)Nc1cccc(C2CCCN(c3ncnc4[nH]ccc34)C2)c1 (centres unmarked) please.
RESULT: < 5.00

QUERY: Write down pIC50 measured for item CN1CCCCC1CNC(=O)Nc1cccc(C2CCCN(c3ncnc4[nH]ccc34)C2)c1 (centres unmarked)
RESULT: < 5.00

QUERY: Given the compound Nc1ncnc(N2CC[C@@H](C(F)(F)F)[C@H](N3CCC[C@@H](Nc4cc(Cl)cc(Cl)c4)C3=O)C2)c1F , write its reported pIC50.
RESULT: > 7.00

QUERY: Please look at this compound and report its pIC50: Nc1ncnc(N2CCC[C@@H](N3CCCC(Nc4ccccc4S(=O)(=O)C4CCCCC4)C3=O)C2)c1F (some centres unmarked)
RESULT: > 7.00

QUERY: Specify reported pIC50 for the compound shown: S=C(Nc1ccccc1)Nc1cccc(C2CCCN(c3ncnc4[nH]ccc34)C2)c1 (centres unmarked)
RESULT: < 5.00

QUERY: Item CC(C)(C)Nc1c(Nc2cccc(C3CCCN(c4ncnc5[nH]ccc45)C3)c2)c(=O)c1=O (centres unmarked) : provide pIC50
RESULT: < 5.00

QUERY: Supply measured pIC50 of Nc1ncnc(N2CCC[C@@H](N3CCCC(Nc4cc(C(F)(F)F)cc(C(F)(F)F)c4)C3=O)C2)c1F (some centres unmarked) in your reply.
RESULT: > 7.00

QUERY: Output measured pIC50 for this item: CC(C)c1ccccc1NC(=O)Nc1cccc(C2CCCN(c3ncnc4[nH]ccc34)C2)c1 (centres unmarked)
RESULT: > 7.00

====

# subject-of-test: BTK (Homo sapiens (Human), UniProt Q06187)
# method-summary: In vitro BTK kinase assay: BTK-POLYGAT-LS ASSAY
# protocol-conditions: read-out: IC50 (10 uM ATP); 10 uM ATP; in vitro Btk kinase assay, Example 41
pIC50: −log10 of the molar value.
measure-name: pIC50

QUERY: # return recorded pIC50 for entry CC(C)(C)c1ccccc1NC(=O)Nc1cccc([C@H]2CCCN(c3ncnc4[nH]ccc34)C2)c1 [compound 156]
RESULT: > 7.00

QUERY: Identify measured pIC50 associated with Nc1ncnc(N2CCOCC(N3CCCC(Nc4cc(F)cc(Cl)c4)C3=O)C2)c1F (stereo not shown) [compound 345]
RESULT: > 7.00

QUERY: Answer with reported pIC50 of O=C1C(Nc2cc(Cl)cc(C(F)(F)F)c2)CCCN1[C@@H]1CCCN(c2ncnc3[nH]ncc23)C1 (stereo partly shown) [compound 305]
RESULT: > 7.00

QUERY: Give pIC50 for Nc1ncnc(N2CCC[C@@H](N3CCCC(NCC4CCCCC4)C3=O)C2)c1F (stereo partly shown) [compound 293]
RESULT: < 5.00

QUERY: Read off the recorded pIC50 for Cc1cc(=O)nc(Nc2cccc(C3CCCN(c4ncnc5[nH]ccc45)C3)c2)[nH]1 (stereo not shown) [compound 122]
RESULT: < 5.00

QUERY: Give a short answer stating reported pIC50 for O=C(Nc1ccccc1)Nc1cc(C2CCCN(c3ncnc4[nH]ccc34)C2)cc(C(F)(F)F)c1 (stereo not shown) [Cmpd 83] .
RESULT: < 5.00

QUERY: Output pIC50 of CN1CCC(CNC(=O)Nc2cccc(C3CCCN(c4ncnc5[nH]ccc45)C3)c2)CC1 (stereo not shown) [compound 245]
RESULT: < 5.00

QUERY: Provide one value: measured pIC50 of Nc1ncnc(N2CC(N3CCCC(Nc4cc(F)cc(Cl)c4)C3=O)CC(F)(F)C2)c1F (stereo not shown) [compound 359]
RESULT: > 7.00

QUERY: Item CC(C)(C)CNC1CCCN([C@@H]2CCCN(c3ncnc(N)c3F)C2)C1=O (stereo partly shown) [compound 292] : provide pIC50
RESULT: < 5.00

QUERY: For the compound Nc1ncnc(N2CC[C@H](O)[C@@H](N3CCCC(Nc4cc(F)cc(Cl)c4)C3=O)C2)c1F (stereo partly shown) [compound 324] , give its reported pIC50.
RESULT: > 7.00

QUERY: Output measured pIC50 for this item: C[C@H](NC(=O)Nc1cccc(C2CCCN(c3ncnc4[nH]ccc34)C2)c1)c1ccccc1 (stereo partly shown) [compound 248]
RESULT: < 5.00

QUERY: Specify measured pIC50 for CC(C)(C)N/C(=N/C#N)Nc1cccc(C2CCCN(c3ncnc4[nH]ccc34)C2)c1 (stereo not shown) [Cmpd 78] .
RESULT: < 5.00

QUERY: Supply recorded pIC50 for O=C(Nc1cccc(C2CCCN(c3ncnc4[nH]ccc34)C2)c1)Nc1cccc2[nH]ncc12 (stereo not shown) [compound 226] here.
RESULT: < 5.00

QUERY: Quickly give me recorded pIC50 for CC(C)NC(=O)Nc1cccc(C2CCCN(c3ncnc4[nH]ccc34)C2)c1 (stereo not shown) [compound 241]
RESULT: < 5.00

QUERY: Indicate the recorded pIC50 value for this compound: FC(F)(F)c1ccc(Nc2cccc(C3CCCN(c4ncnc5[nH]ccc45)C3)c2)nc1 (stereo not shown) [compound 142]
RESULT: < 5.00

QUERY: Check the records and state pIC50 for O=C(Nc1ccccc1)Nc1ccc(C2CCCN(c3ncnc4[nH]ccc34)C2)cc1 (stereo not shown) [compound 268]
RESULT: < 5.00

src = patent US9790229B2
